Consider the following sequences and their measured apparent KD of K4 kissing-loop reporter readings.
# Test system: K4 kissing-loop RNA reporter
# Run Description: apparent KD of K4 kissing-loop reporter; higher = weaker reporter binding
# Condition Label: Eterna round: R107; input ligand: theophylline 20 uM
All answers are understood in nM, so give the number only.

Here's what some known entries look like.
AGACUUCACCGAAGGAGCGACGUAGCCUAGUGAUGUUAGGCAAGAGAGAAAUCUCUUAUACGUCAGGUAGGUCGCGGUGAAGUCA [Omei KL Arginine B SS C v2]
160
GGUAUCUAUACAGAUACCAGUCGUACGGCUGCAUUACAGGUUAGUGAUGUUAACCUGUACGACCCUUGGCAGCUGUAUAGUAGUA [#14 K4 Theophylline B Exclusion]
197
UUGCCUUUGAGCGAUACCAGCAGCGUCGGCCUUAGAUUGGGAGGCAUGGCAAGUGAUGUUUGCCCUUGGCAGCGCGUAUAGUACA [theeternabot_exclusion_KL_Theo_B_7]
439

# query: apparent KD of K4 kissing-loop reporter of entry UACUAUAUUCUGUCGUUUUUAUUAGUUUGUCAGGAUAUCGUUUAUUCGAGAAGGGACACUAUCUAGUGAUGUUAGAUAUUUCUUU [JR_Nu3_ExcFMNA_Sub030]
93.2

====

# Test system: K4 kissing-loop RNA reporter
# Run Description: apparent KD of K4 kissing-loop reporter; higher = weaker reporter binding
# Condition Label: Eterna round: R107; input ligand: FMN 200 uM
Property: apparent KD of K4 kissing-loop reporter (nM)
All answers are understood in nM, so give the number only.

Here's what some known entries look like.
ACCGCAUUGGGCUGAUCCCAAUGCGCUGGUCGAGGACCGGUACGGCCGCCACUCGUCCAGUGAUGUUGGACUAGGGCAACUGAAG [Veraceer]
390
GGUCCACGCCAUGCCAGUGAUGUUGGUAAGCGAGGACCGGUACGGCCGCCACUCGUUCAAUACCGUAUCGCCCAUAACCUGGAGA [Oneseror]
113
UGGGUGUAGUGAUGUUAUAUAGAGAGUGAUACCAGUUUAGAGAAGAACCCUUGGCAGCAUAGAAGAGUAUCAUUGGAGAAGAAUG [ExTheophyl.As]
459
UGAUAGGACAGAAGGAGCGGGAGUGAUGUUCCCAAAAGGAUAAGGUGUCAAAAGACACCCUCCCAGGUAGGUCGCUGUCCUAUCU
577

Next sequence, please.
Entry GGAGGUUGGUGCGAUACCAGACCAGCAGUGAUGUUGCGCCAAAGUGAGUGAUGUUCACCGGUCCCUUGGCAGCGCAUUCCUUUAG [Same State Theophylline B GF 14] , system K4 kissing-loop RNA reporter: what apparent KD of K4 kissing-loop reporter was measured?
964

====

# Test system: MS2 coat protein
# Run Description: apparent KD of MS2 coat protein; designed switch direction (-1 OFF switch, 1 ON switch): -1; higher = weaker reporter binding
# Condition Label: Eterna round: R95; input ligand: microRNA oligo, concentration not stated
Property: apparent KD of MS2 coat protein (nM)
All answers are understood in nM, so give the number only.

CCGGAAAGGGAGGAUAUAGGAGUCGAUAGACACCUAGAAGGUCUGACAUGAGGAUCACCCAUGUGUCCUACCGG [Fiskers Ex 6 - 90] (puzzle: Exclusion 6)
19.9

# query: apparent KD of MS2 coat protein of entry GCGCACUAAGUGAGGAUAUCGUUUAUUUAUAGGAUCGAGAAGGCACAUGAGGAUCACCCAUGUUAAACGUGCGC [JR_BMOE4_Sub100] (puzzle: Brourd's mod of Exclusion 4)
15.7

What do you have for UUUUAACAUGAGGAUCACCCAUGUGAGGAUAUCGAAAUUUAUAUUUAUAUUAAUAUAACGAGAAGGCACAUUUU [JMF 79] (puzzle: Exclusion 1) ?
58.2

What do you have for GCAUUGAGUGUGAGGAUAUGCUGGUCCUUGGAUCAGCAGAAGGCACAUGAGGAUCACCCAUGUGAAUACAAUGC [JL bmx4 3.13] (puzzle: Brourd's mod of Exclusion 4) ?
18.9

What do you have for UUCAUGUGAGGAUAUAGUACUCUUUCUAUUAUUUUUGAGUAUUAGAAGGCACAUGAGGAUCACCCAUGUAGUAC [Ex4 - 3 - 42] (puzzle: Exclusion 4) ?
40.8

What do you have for GUGGUGGGUUUUCCGAGUAACAUGAGGAUCACCCAUGUAGAAGUUGAAGGUAUCAAGCGAAUGGCUCGUCAAAUGUG [JR_SV3TOV1_Sub047] (puzzle: Sensor v3, turn-off variant 1) ?
17.5

====

# Test system: K4 kissing-loop RNA reporter
# Run Description: apparent KD of K4 kissing-loop reporter; higher = weaker reporter binding
# Condition Label: Eterna round: R107; input ligand: theophylline 20 uM
Consider the following sequences and their measured apparent KD of K4 kissing-loop reporter readings.
All answers are understood in nM, so give the number only.

Here's what some known entries look like.
CCGGCCCAGCCGGAUACCAGUGCGCCGCAGGGAACGGCGGGCCCAGAGUGAUGUUCGGGACACCCUUGGCAGCCGCCUGGGUCGU [#2 Same State - Theophylline B Attempt #28 (HarryS)]
258
CGACGCCGGUCGGCCGCCACUCACAGCAGCCAGUGAUGUUGGAUUGUAGCGGAGUGAUGUUUCGCGAGGACCGGGACUGCAGUCG [Same State Tryptophan B GF 12]
130

Entry GGAUAGGAUAGAGGAUAUGGUAUAUGCAAGAAUAACUUGUCAUGUAAAUCCAUGAGGAGUGAUGUUCCAGAAGGCUGUCCUAUCG [MatMod 10 - Jieux - Exclusion - FMN B] , system K4 kissing-loop RNA reporter: what apparent KD of K4 kissing-loop reporter was measured?
519

====

Consider the following sequences and their measured apparent KD of K4 kissing-loop reporter readings.
# Test system: K4 kissing-loop RNA reporter
# Run Description: apparent KD of K4 kissing-loop reporter; higher = weaker reporter binding
# Condition Label: Eterna round: R107; input ligand: FMN 200 uM
Answer format reminder: number followed by unit.

Here's what some known entries look like.
UGCCGCAAGGCGAGCGCUCCCACUCCGGAAGGAGCGCCCGGAAGGGCAGGUAGGUCGCCGGAGUGAUGUUCCGGUGGAGGGCUCG [#2 Exclusion - Arginine A Attempt #26 (Inspired by Omei)]
462 nM
GCAUGGGUGCUUGCACAAGUGAUGUUUGGGCGAGGACCGGUACGGCCGCCACUCGUACGUUUAGUUAAAAGACAUCAUGCGAGUC [theeternabot_exclusion_KL_Trp_A_11]
291 nM
UGGAUAUCGUUUAGUCUGGUGAGGUCAGAUACCAGACUAGCGAUAGUCCCUUGGCAGCUGAUUAUGAUUGAGUGAUGUUCAAUCG [Theo A Ex t9a]
179 nM
UCGAAGGAUGGAAGGAGCGCUCGUCAGUCCUGCGAGUGAUGUUCGUGGGUAAAUAGUCGCGAGCAGGUAGGUCGCCAUCUUGAGC [Laxe]
139 nM
CGCCGGAAGGCGAGCGCUCCCACUCCGGAAGGAGCGCCCGGAAGGGCAGGUAGGUCGCCGGAGUGAUGUUCCGGUGGAGGGCUCG [#2 Exclusion - Arginine A Attempt #11 (Inspired by Omei)]
171 nM

# query: apparent KD of K4 kissing-loop reporter of entry AGCGCUGCCUGAGGAUAUAGAGACGAGUGAUGUUCGUGGAUUGAUACCAGUGAUGUUGGUCUAUUUCUAGAAGGCAGGCGAUCGU [Exclusion FMN B GF 3]
131 nM

What do you have for GGAGGGAUCUCGGCCGCCACUCAUAAGAAAUGGGCCUCAGAAAUAUAGUGAUGUUAUGUAAAGAAGAGGACCGGGAGAAAGAAGG [ExTryptoB.Da] ?
390 nM

What do you have for UCAUCAUGAUGGUAGUAACCGCAUUGGGAGCGAGGACCGGUACGGCCGCCACUCGAAAUGUACAUAGCAGUAGUGAUGUUGCUGC [theeternabot_sameState_KL_Trp_A_47] ?
134 nM

What do you have for AAAGAGUCACUCGAAGCCAUCGAAGAUGGGCGAGGACCGGUACGGCCGCCACUCGGAGUGAUGUUCCGAAGACUGUAAAAUAAAA [MatMod 11 - Jieux - Exclusion - Tryptophan A] ?
273 nM

====

# System: K4 kissing-loop RNA reporter
# Run Description: apparent KD of K4 kissing-loop reporter; higher = weaker reporter binding
# Condition Label: Eterna round: R107; input ligand: FMN 200 uM
Consider the following sequences and their measured apparent KD of K4 kissing-loop reporter readings.
All answers are understood in nM, so give the number only.

Entry UGUGAUGUGUAGUGUUAUGUUUUGCGGGAUACCAGAGUCUUUUUAUUCCCUUGGCAGCUUGAGUGAUGUUUGAUGCUGUUCUUGU [cxxdmullin] , system K4 kissing-loop RNA reporter: what apparent KD of K4 kissing-loop reporter was measured?;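 further: bound reporter read as fluorescence of individual clusters on recovered sequencing chips by microscopy, with normalized cluster intensities fitted with a binding model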
453

What do you have for UUUGGAAGCGGUGUUGAUUAGGGAGCGGAAGGAGCGCCGAGGAGGGCAGGUAGGUCGCCGGAAUGUAGUGAUGUUGCAUAGAGGU [ExArgA.Aa] ?
290

What do you have for UAUUCUGUUCGAAAGAACGGAAUUUCGGAAGGAGCGAGAGAAAUCUCAGGUAGGUCGCCGAAAUUAUUAGAUAGUGAUGUUAUCU [Arginine A K4 4] ?
162

What do you have for AGACUACCACACUGUCAAUAGACAGUGAACUAGGAUAUGCUGAUAAGCAGAAGGAGUGAUGUUCCUAAAGGUAGUCAAAUAUAAU [FmnAX 14 #SwitchBubble #StaticStem #K4Early] ?
335

What do you have for GAUUAAUAAGAGGAUACCAGUACAAAUAAAGUACAUUAAUAGUAGAGUGAUGUUCUAAAGUACCCUUGGCAGCUUAGAGUAAGUU [ExTheophylB.A] ?
119

What do you have for ACUGAGUUGACGAAAGUCAACAAUUGAGAAGGAGCGCACGAAAGUGCAGGUAGGUCGCUCAGUCCAGUGAUGUUGGAUCAUCAGA [#17 K4 Arginine A Same State] ?
324
